# Test system: utrophin promoter
# Assay Method Text: utrophin promoter-luciferase reporter assay, 96-well format
# Format: cell-based
# Experimental Conditions: 96-well format, C2C12utrn cells, luciferase readout; read-out: Max. fold change
Structures can show the parent of a compound that is named as a salt.
# label = met if maximal fold induction >= 2 else not met

| Compound | Subject Of Test | Classification |
| --- | --- | --- |
| O=C(/C=C/C=C/c1ccc2c(c1)OCO2)N1CCCCC1 | utrophin promoter | met |
| C#CCN(C)CCCOc1ccc(Cl)cc1Cl [clorgyline HCl] | utrophin promoter | not met |
| COc1ccc([C@@H]2CC(=O)c3c(O)cc(O)cc3O2)cc1O | utrophin promoter | met |
| COc1ccc2cc(CCC(C)=O)ccc2c1 | utrophin promoter | met |
| O=c1cc(-c2ccc(O)cc2)oc2cc(O)cc(O)c12 | utrophin promoter | met |
